Experiment: Cmax in CD-1 mouse at 50 mg/kg, ip measured upto 24 hrs by LC-MS/MS analysis
Assay type: ADME, organism-based
Design: dose 50 mg/kg, time < 24 hrs, route ip
Details: in vivo
Quantity name: Cmax (µM)

CC1=C(C(=O)NCc2cnn(C)c2)C(c2ccc(C)cc2Cl)N=C(Nc2nc3ccc(F)c(N)c3o2)N1 (racemic): 21.9

----------
Experiment: physchem
Conditions: phosphate buffer, pH 7.4
Description: Kinetic solubility of the compound in phosphate buffer at pH 7.4 at 150 uM incubated for 6 hrs by shake-flask method
This listing pairs compounds with measured solubility kinetic at 6 h, 150 µM.
Quantity name: solubility kinetic at 6 h, 150 µM

CCn1cc(CNC(=O)C2=C(C)NC(Nc3nc4ccc(F)c(N)c4o3)=NC2c2ccc(C)cc2Cl)cn1 (racemic): < 1 µg/mL
CCn1cc(CNC(=O)C2=C(C)NC(Nc3nc4cccc(N)c4o3)=NC2c2ccc(C)cc2Cl)cn1 (racemic): 2.4 µg/mL
CC1=C(C(=O)NCc2cnn(C)c2)[C@H](c2ccc(C)cc2Cl)N=C(Nc2nc3cccc(N)c3o2)N1: 17 µg/mL
CC1=C(C(=O)NCc2cnn(C)c2)C(c2ccc(C)cc2Cl)N=C(Nc2nc3ccc(F)c(N)c3o2)N1 (racemic): 1.3 µg/mL
CCn1cc(CNC(=O)C2=C(C)NC(Nc3nc4ccc(F)c(N)c4o3)=N[C@H]2c2ccc(C)cc2Cl)cn1: < 1 µg/mL
CC1=C(C(=O)NCc2cnn(C)c2)C(c2ccc(C)cc2Cl)N=C(Nc2nc3cccc(N)c3o2)N1 (racemic): 8.3 µg/mL
CCn1cc(CNC(=O)C2=C(C)NC(Nc3nc4ccc(F)c(N)c4o3)=N[C@@H]2c2ccc(C)cc2Cl)cn1: 2.1 µg/mL

----------
This listing pairs compounds with measured Papp at 0.5 h.
Assay: Permeability of the compound at pH 7.4 measured after 30 mins by PAMPA based LC/MS analysis
Assay type: ADME
Conditions: PAMPA, pH 7.4, read-out: permeability
Quantity name: Papp at 0.5 h (×10⁻⁶ cm/s)

CC1=C(C(=O)NCc2cnn(C)c2)C(c2ccc(C)cc2Cl)N=C(Nc2nc3ccc(F)c(N)c3o2)N1 (racemic): 485
CCn1cc(CNC(=O)C2=C(C)NC(Nc3nc4ccc(F)c(N)c4o3)=N[C@@H]2c2ccc(C)cc2Cl)cn1: 407
CC1=C(C(=O)NCc2cnn(C)c2)[C@H](c2ccc(C)cc2Cl)N=C(Nc2nc3cccc(N)c3o2)N1: 661
CCn1cc(CNC(=O)C2=C(C)NC(Nc3nc4ccc(F)c(N)c4o3)=NC2c2ccc(C)cc2Cl)cn1 (racemic): 410
CCn1cc(CNC(=O)C2=C(C)NC(Nc3nc4cccc(N)c4o3)=NC2c2ccc(C)cc2Cl)cn1 (racemic): 632
CCn1cc(CNC(=O)C2=C(C)NC(Nc3nc4ccc(F)c(N)c4o3)=N[C@H]2c2ccc(C)cc2Cl)cn1: 773

----------
This listing pairs compounds with measured IC50.
Target: Galactokinase (Homo sapiens, UniProt P51570)
Sequence (P51570 whole entry): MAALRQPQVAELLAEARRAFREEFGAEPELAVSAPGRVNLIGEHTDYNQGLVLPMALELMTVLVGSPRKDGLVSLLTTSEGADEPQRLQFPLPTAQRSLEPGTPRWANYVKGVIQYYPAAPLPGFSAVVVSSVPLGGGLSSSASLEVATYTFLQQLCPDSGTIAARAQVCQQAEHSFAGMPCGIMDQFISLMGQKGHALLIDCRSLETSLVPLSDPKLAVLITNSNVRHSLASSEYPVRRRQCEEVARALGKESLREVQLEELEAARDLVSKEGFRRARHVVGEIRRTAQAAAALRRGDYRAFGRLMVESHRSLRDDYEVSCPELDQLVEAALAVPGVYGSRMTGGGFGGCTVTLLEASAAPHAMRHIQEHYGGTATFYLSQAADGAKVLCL
Test: Inhibition of recombinant human GALK1 using galactose as substrate incubated for 1 hrs in the presence of ATP by Kinase-Glo reagent based luminescence assay
Settings: read-out: pIC50 (converted)
Quantity name: IC50 (µM)

CC1=C(C(=O)NCc2cnn(C)c2)C(c2ccccc2Cl)N=C(Nc2nc3ccccc3o2)N1 (centres undefined): 1.41
CC1=C(C(=O)NCc2cccc(CO)c2)C(c2ccccc2Cl)N=C(Nc2nc3ccccc3o2)N1 (centres undefined): 4.68
CC1=C(C(=O)Nc2cccc(C(=O)O)c2)C(c2ccccc2Cl)N=C(Nc2nc3ccccc3o2)N1 (centres undefined): 2.63
COc1ccc2oc(NC3=NC(c4ccccc4Cl)C(C(=O)Nc4cc(C(=O)O)ccn4)=C(C)N3)nc2c1 (centres undefined): 6.61
CC1=C(C(=O)Nc2cc(C(=O)O)ccn2)C(c2ccc(F)cc2Cl)N=C(Nc2nc3ccc(F)cc3o2)N1 (centres undefined): 0.891
CC1=C(C(=O)Nc2cc(C(=O)O)ccn2)C(c2ccccc2Cl)N=C(Nc2nc3cccc(F)c3o2)N1 (centres undefined): 1.78
CC1=C(C(=O)Nc2ccc(O)cc2)C(c2ccccc2Cl)N=C(Nc2nc3ccccc3o2)N1 (centres undefined): 3.72
CC1=C(C(=O)NCc2cn(C)cn2)C(c2ccccc2Cl)N=C(Nc2nc3ccccc3o2)N1 (centres undefined): 1.05
CC1=C(C(=O)Nc2cc(C(=O)O)ccn2)C(c2ccccc2Br)N=C(Nc2nc3ccc(F)cc3o2)N1 (centres undefined): 0.562
CC1=C(C(=O)Nc2cc(C(=O)O)ccn2)C(c2ccccc2Cl)N=C(Nc2nc3c(C)cccc3o2)N1 (centres undefined): 9.33
CC1=C(C(=O)Nc2cc(C(=O)O)ccn2)C(c2ccccc2Cl)N=C(Nc2nc3cc(N)ccc3o2)N1 (centres undefined): 7.41
CC1=C(C(=O)NCc2cccc(C(=O)O)c2)C(c2ccccc2Cl)N=C(Nc2nc3ccccc3o2)N1 (centres undefined): 9.33
CC1=C(C(=O)NCc2ccc(CO)cc2)C(c2ccccc2Cl)N=C(Nc2nc3ccccc3o2)N1 (centres undefined): 6.61
CC1=C(C(=O)Nc2ccccc2Cl)C(c2ccccc2Cl)N=C(Nc2nc3ccccc3o2)N1 (centres undefined): 4.17
CC1=C(C(=O)Nc2nncs2)C(c2ccccc2Cl)N=C(Nc2nc3ccccc3o2)N1 (centres undefined): 3.72
CC1=C(C(=O)Nc2cc(C(=O)O)ccn2)C(c2ccccc2Cl)N=C(Nc2nc3cc(Cl)ccc3o2)N1 (centres undefined): 2.63
CC1=C(C(=O)Nc2ccccc2)C(c2ccccc2Cl)N=C(Nc2nc3ccccc3o2)N1 (centres undefined): 10.5
CCn1cc(CNC(=O)C2=C(C)NC(Nc3nc4ccc(F)c(N)c4o3)=N[C@@H]2c2ccc(C)cc2Cl)cn1: 1.48
CC1=C(C(=O)NCc2cnn(C)c2)C(c2ccc(C)cc2Cl)N=C(Nc2nc3cccc(N)c3o2)N1 (racemic): 0.209
COc1ccc2nc(NC3=NC(c4ccccc4Cl)C(C(=O)Nc4cc(C(=O)O)ccn4)=C(C)N3)oc2c1 (centres undefined): 19.5
CC1=C(C(=O)Nc2nnc(C)s2)C(c2ccccc2Cl)N=C(Nc2nc3ccccc3o2)N1 (centres undefined): 5.25
COc1ccc(C2N=C(Nc3nc4ccc(F)cc4o3)NC(C)=C2C(=O)Nc2cc(C(=O)O)ccn2)c(Cl)c1 (centres undefined): 0.447
CC1=C(C(=O)Nc2cccnc2)C(c2ccccc2Cl)N=C(Nc2nc3ccccc3o2)N1 (centres undefined): 6.61
CC1=C(C(=O)NCc2ccc(C(=O)O)cc2)C(c2ccccc2Cl)N=C(Nc2nc3ccccc3o2)N1 (centres undefined): 3.72
CC1=C(C(=O)Nc2cc(C(=O)O)ccn2)C(c2ccc(N3CCOCC3)cc2Cl)N=C(Nc2nc3ccc(F)cc3o2)N1 (centres undefined): 0.447
CC1=C(C(=O)Nc2cc(C(=O)O)ccn2)C(c2ccccc2Cl)N=C(Nc2nc3cccc(C)c3o2)N1 (centres undefined): 0.933
COC(=O)c1ccc(NC(=O)C2=C(C)NC(Nc3nc4ccccc4o3)=NC2c2ccccc2Cl)cc1 (centres undefined): 4.47
CC1=C(C(=O)Nc2cc(C(=O)O)ccn2)C(c2ccccc2Cl)N=C(Nc2nc3cccc(N)c3o2)N1 (centres undefined): 0.234
CC1=C(C(=O)NCc2cnn(C)c2)[C@@H](c2ccc(C)cc2Cl)N=C(Nc2nc3cccc(N)c3o2)N1: 11.7
CC1=C(C(=O)Nc2cc(C(=O)O)ccn2)C(c2ccccc2Cl)N=C(Nc2nc3c(N)cccc3o2)N1 (centres undefined): 19.5
CC1=C(C(=O)NCc2cnn(C)c2)[C@H](c2ccc(C)cc2Cl)N=C(Nc2nc3cccc(N)c3o2)N1: 0.12
CC1=C(C(=O)Nc2cc(C(=O)O)ccn2)C(c2ccc(Cl)cc2Cl)N=C(Nc2nc3ccc(F)cc3o2)N1 (centres undefined): 1.05
CC1=C(C(=O)Nc2cccc(CO)c2)C(c2ccccc2Cl)N=C(Nc2nc3ccccc3o2)N1 (centres undefined): 4.17
CC1=C(C(=O)Nc2cccc(F)c2)C(c2ccccc2Cl)N=C(Nc2nc3ccccc3o2)N1 (centres undefined): 6.61
